Assay: Human HepG2 cell viability assay in 384 well format
Format: toxicity, cell-based
Parameters: dose 125 nL, time 70.5 hour; concentration not given beside the values
Conditions: HepG2 cells, read-out: Inhibition
endpoint label: cytotoxicity at 70.5 h (%)

Cc1oc(C)c(C(=O)Nc2ccccn2)c1C ... -10.7
O=C(c1ncn2c1CNS(=O)(=O)c1ccccc1-2)N1CC=CC1 ... 1.87
O=C(NCCN1CCOCC1)c1nc(-c2ccc3[nH]ccc3c2)no1 ... -30.5
Cc1nccn1CC1CCN(C(=O)c2cccs2)CC1 ... -17.8
COc1ccc(-c2noc([C@@H](C)NS(=O)(=O)CC(C)C)c2C(=O)O)cc1 ... -10.7
CCNC(=O)NC(=O)CNC1(c2noc(C)n2)CCCCC1 ... 28.5
CC(C)c1noc(CCC(=O)NCC2CC2)n1 ... 23.5
COCc1nc(NC(C)Cc2cc(C)n[nH]2)c2cnn(C)c2n1 (centres undefined) ... -0.0562
CCc1nnc(SC2CCN(c3ccccc3F)C2=O)n1C (centres undefined) ... -2.9
CS(=O)(=O)NC[C@H]1OC[C@@H]2CCN(CCc3ccccc3)C[C@@H]21 ... 17.3
COCCN1C(=O)CC[C@@H]2[C@H]1CCN2C(=O)N(C)C ... -8.72
O=C(c1ccccc1)N1Cc2nccn2CC(Cn2ncccc2=O)C1 (centres undefined) ... -6.78
COc1ccc(C(=O)Nc2ccc3c(c2)C(=O)NC3)cc1Br ... -5.4
CCCn1ccc(C(=O)N2CCC(C)CC2)n1 ... -11.6
O=C(c1cc(Cl)c2c(c1)OCO2)N1CCN(c2ccccn2)CC1 ... -2.19
FC(F)(F)C1CN(c2nc(-c3ccccc3)no2)CCO1 (centres undefined) ... -14.1
CCN(C)c1ncnc2c1CCN(c1ccc(C)nn1)CC2 ... -2.59
Cc1cc(C)cc(NC(=O)Cc2c(C)nc3c(c2C)c(=O)[nH]n3C)c1 ... -0.0448
O=C(c1ccn[nH]1)N1CCCC(n2cncn2)C1 (centres undefined) ... 5.61
Cc1ccc(CN2Cc3c(C(=O)N4CCN(C)CC4)nn(C)c3C2)s1 ... -3.87
CN1CCN(CCCNCc2cc(O)c3cc(F)ccc3n2)CC1 ... -4.99
Cc1cc2cc(C(=O)N[C@@H]3CC[C@@H](N4CCCC4)[C@@H]3O)ccc2o1 ... -5.68
Cn1ccc(CN2CCOCC23CCNCC3)n1 ... -6.05
CCCS(=O)(=O)N1CCN(C(=O)CO)CC1 ... -6.95
